Each item that follows carries a reported APOA1 plasma protein levels.
# System: APOA1 plasma protein
# Run description: APOA1 plasma protein levels in C57BL/6 mice
# Type: in vivo, mouse
# Design: unit not given here
# Conditions used: Week 3, 50 mg/kg/week
Oligonucleotides are written 5' to 3', each unit as a sugar letter and its base; * is a phosphorothioate linkage, no mark a phosphodiester; rarer units and linkages stand in square brackets, end groups in braces. Plain capitals give the bases only. e = 2'-O-(2-methoxyethyl) (MOE); [5mC] = 5-methylcytosine; d = 2'-deoxy (DNA)

Reference set, count: 3
Query sequence	APOA1 plasma protein levels
GCAGCTCGATTCGGGCATGA (antisense eG*e[5mC]*eA*eG*e[5mC]*dT*d[5mC]*dG*dA*dT*dT*d[5mC]*dG*dG*dG*e[5mC]*eA*eT*eG*eA) [ISIS 447118]	+13
TATTTCTATAGCTCATGACA (antisense eT*eA*eT*eT*eT*d[5mC]*dT*dA*dT*dA*dG*d[5mC]*dT*d[5mC]*dA*eT*eG*eA*e[5mC]*eA) [ISIS 447144]	+14
GCCACCAGTGCCTGCTGAGC (antisense eG*e[5mC]*e[5mC]*eA*e[5mC]*d[5mC]*dA*dG*dT*dG*d[5mC]*d[5mC]*dT*dG*d[5mC]*eT*eG*eA*eG*e[5mC]) [ISIS 447143]	+15

Here is another sequence to look at.
Measured APOA1 plasma protein levels of CGGATGATTCTTGCTGGTAA (antisense e[5mC]*eG*eG*eA*eT*dG*dA*dT*dT*d[5mC]*dT*dT*dG*d[5mC]*dT*eG*eG*eT*eA*eA) [ISIS 447114] : +12
